# Method summary: qHTS profiling of the MIPE4 collection as inhibitors of Plasmodium falciparum (3D7) proliferation (AID 743344)
# Condition details: P. falciparum 3D7 in erythrocytes, SYBR Green DNA fluorescence, 72 h; at 28.5 µM unless noted
Quick rule: parasite growth, % of DMSO control of at least 70% means yes, below that means no.

Consider the following illustrative entries.
> print(dat)
                                   molecule  assigned.class
1  CCCCC(C)(C)[C@H](O)C=C[C@H]1[C@H](O)CC(=O)[C@H]1CC=CCCCC(=O)O             yes
2  CCOC(=O)N1CCN([N+]([O-])=NOc2cc(ON=[N+]([O-])N3CCN(C(=O)OCC)CC3)c([N+](=O)[O-])cc2[N+](=O)[O-])CC1              no
3  Nc1[nH]nc2nnc(-c3c(-c4ccccc4)nn4ccccc34)cc12              no

Is parasite growth, % of DMSO control for O=C1C(c2c(O)[nH]c3ccccc23)=Nc2ccccc21 at or above 70%?
yes
